Entry source: patent US20190033318A1

- study-target: T1, 2α PASB (HIF-2α PASB domain, 240-350) (UniProt Q99814 240-350, labelled with NT-647-NHS dye in MST; 15N (and 13C 15N) labelled in NMR)
- T1 construct: range 240-350; also called PAS B domain of HIF-2α; not shown: His6 tag of vector pET28, then Met
- T1 sequence (Q99814 240-350): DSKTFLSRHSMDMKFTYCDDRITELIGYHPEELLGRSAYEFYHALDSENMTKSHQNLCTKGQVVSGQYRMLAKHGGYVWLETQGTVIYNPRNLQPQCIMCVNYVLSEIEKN
- assay-protocol: competition ELISA: 2α PASB on Ni plate, peptide titrated, blocked partner GST-1β; the value stands in the panel without a name, the ELISA fits give IC50; the fall is only partial
quantity-name: IC50 (µM)
Answers are plain numbers, in µM.

*Q* What measured IC50 goes with CRVIIA (also called alanine scan peptide of CRVIIF, position 6 (F to A)) ?
*A* 37.1
